subject-of-test: T1, PTPN13_5, Q12923
T1 sequence (Q12923 1877-1975, limits assumed, looked up): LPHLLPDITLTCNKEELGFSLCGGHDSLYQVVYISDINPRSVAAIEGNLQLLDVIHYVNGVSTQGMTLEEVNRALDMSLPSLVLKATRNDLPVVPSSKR
run-description: holdup assay
Set-up: key: below the threshold = too weak to quantify, mostly under pKd 3.1 to 4
setup-conditions: plain residues with an end cap or a label only (N-terminal biotin on a linker: ttds)
readout-kind: pKd

binder	observed-value
QRQARSETLV [HPV59-E6, Q81964]	4.52
RLPKIKETTV [FRMPD4, Q14CM0]	below the threshold
SKPTRRETEV [HPV35-E6, P27228]	below the threshold
RLQRRRETQV [HPV18-E6, P06463]	below the threshold

Where do the numbers come from? From paper PMC9482650.
